The reported numbers originate from paper PMC5708365.

# Tested on: P. falciparum 3D7 strain parasites
# run.description: microbe, parasite or virus in culture
# stated.conditions: Plasmodium falciparum, 3D7, 72 h, read-out: Pf3D7 IC50
measure.name: IC50
Include the unit right after the number.

Query: Need IC50 of CCN(CC)CCCC(C)Nc1ccnc2cc(Cl)ccc12 (stereo not shown) , thanks.
Response: 8 nM

* * *

# system.name: G9a (Homo sapiens)
# stated.conditions: read-out: G9a IC50; SPA, 5 nM G9a, H3 1-25 peptide 0.8 μM, 3H-SAM 8 μM
measure.name: IC50

Check out these entries, answers already filled in.
1. COc1cc2c(NC3CCN(C)CC3)nc(N3CCCN(C)CC3)nc2cc1OCc1ccccc1    > 1000 nM
2. COc1cc2nc(N3CCCCC3)nc(NC3CCN(Cc4ccc(F)cc4)CC3)c2cc1OC    1210 nM
3. COc1cc2nc(N3CCN(C)CC3)nc(NC3CCN(Cc4cccc(C)c4)CC3)c2cc1OC    116 nM
4. COc1cc2nc(N3CCCN(C)CC3)nc(NC3CCN(CC4CCCCC4)CC3)c2cc1OC    10 nM
5. COc1cc2nc(N3CCCN(C)CC3)nc(NC3CCN(C(C)C)CC3)c2cc1OC    55 nM
6. COc1cc2cc(N3CCCCC3)nc(NC3CCN(Cc4ccccc4)CC3)c2cc1OC    > 25000 nM
7. COc1cc2nc(N3CCN(C)CC3)nc(NC3CCN(CC4CCCCC4)CC3)c2cc1OC    25 nM

Here's the next entry for you.
Query: # input compound: COc1cc2nc(N3CCN(c4ccccn4)CC3)nc(NC3CCN(C)CC3)c2cc1OC ; wanted: its IC50
Response: > 1000 nM

* * *

# system.name: G9a (Homo sapiens, UniProt Q96KQ7)
# Sequence (Q96KQ7 1-1210): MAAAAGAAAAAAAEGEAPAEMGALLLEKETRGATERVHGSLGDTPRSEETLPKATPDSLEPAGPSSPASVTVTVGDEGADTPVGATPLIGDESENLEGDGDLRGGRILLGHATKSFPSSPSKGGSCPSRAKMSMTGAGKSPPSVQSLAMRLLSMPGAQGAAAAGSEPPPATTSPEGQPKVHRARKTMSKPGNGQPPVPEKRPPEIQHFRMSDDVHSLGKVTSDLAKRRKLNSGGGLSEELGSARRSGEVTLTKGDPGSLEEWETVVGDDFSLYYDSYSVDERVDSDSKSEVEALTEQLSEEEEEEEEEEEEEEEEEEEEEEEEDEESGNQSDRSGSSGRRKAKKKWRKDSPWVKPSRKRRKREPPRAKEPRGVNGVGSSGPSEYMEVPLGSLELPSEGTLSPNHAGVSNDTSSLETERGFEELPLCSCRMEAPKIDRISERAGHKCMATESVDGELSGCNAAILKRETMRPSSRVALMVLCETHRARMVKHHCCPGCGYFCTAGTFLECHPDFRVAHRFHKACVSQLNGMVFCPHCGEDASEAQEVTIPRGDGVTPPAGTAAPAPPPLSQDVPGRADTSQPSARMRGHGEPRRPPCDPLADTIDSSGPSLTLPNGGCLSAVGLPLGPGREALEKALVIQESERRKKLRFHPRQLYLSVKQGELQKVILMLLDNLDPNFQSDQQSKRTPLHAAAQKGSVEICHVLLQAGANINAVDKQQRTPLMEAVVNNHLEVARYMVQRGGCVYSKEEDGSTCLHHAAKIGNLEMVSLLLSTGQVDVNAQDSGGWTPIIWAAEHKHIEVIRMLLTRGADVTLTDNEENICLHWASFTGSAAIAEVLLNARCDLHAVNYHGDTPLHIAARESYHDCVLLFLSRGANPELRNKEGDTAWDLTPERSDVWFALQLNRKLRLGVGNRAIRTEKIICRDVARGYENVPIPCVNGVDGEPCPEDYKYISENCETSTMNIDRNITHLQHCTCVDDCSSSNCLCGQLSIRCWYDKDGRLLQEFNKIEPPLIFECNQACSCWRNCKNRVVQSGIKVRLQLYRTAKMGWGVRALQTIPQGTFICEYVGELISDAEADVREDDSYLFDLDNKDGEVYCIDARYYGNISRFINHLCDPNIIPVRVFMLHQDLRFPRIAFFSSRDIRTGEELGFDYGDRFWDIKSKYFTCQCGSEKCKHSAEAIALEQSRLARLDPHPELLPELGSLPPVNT
# stated.conditions: read-out: G9a IC50; SPA, 5 nM G9a, H3 1-25 peptide 0.8 μM, 3H-SAM 8 μM
measure.name: pIC50
For clarity, pIC50 is expressed as the negative log10 of concentration in mol/L.

1. CCCCCCCCOc1cc2nc(N3CCCN(C)CC3)nc(NC3CCN(Cc4ccccc4)CC3)c2cc1OC [compound 73]    6.68

Query: Requested read-out: pIC50. Entry: CCCCOc1cc2nc(N3CCN(C)CC3)nc(NC3CCN(C(C)C)CC3)c2cc1OC [compound 80]
Response: 6.07

Query: Item: COc1cc2nc(N3CCCCC3)nc(NC3CCN(C(C)C)CC3)c2cc1OC [compound 54]
Response: 6.50

* * *

# system.name: UniProt:Q96KQ7
# stated.conditions: read-out: G9a IC50; SPA, 5 nM G9a, H3 1-25 peptide 0.8 μM, 3H-SAM 8 μM
pIC50: −log10 of the molar value.
Answer Condition not met if pIC50 is under 7, and Condition met if it is 7 or more.

1) COc1cc2nc(N3CCCCC3)nc(NC3CCN(Cc4ccccc4)C3)c2cc1OC (stereo not shown) [compound 33]    Condition not met
2) CCCCCCOc1cc2nc(N3CCCN(C)CC3)nc(NC3CCN(Cc4ccccc4)CC3)c2cc1OC [compound 74]    Condition met
3) COc1cc2nc(N3CC(C)CC(C)C3)nc(NC3CCN(C(C)=O)CC3)c2cc1OC (stereo not shown) [compound 37]    Condition not met
4) COc1cc2c(NC3CCN(Cc4ccccc4)CC3)nc(N3CCN(C)CC3)nc2cc1OCCCN(C)C [compound 70]    Condition met
5) CCCCOc1cc2nc(N3CCN(C)CC3)nc(NC3CCN(Cc4ccccc4)CC3)c2cc1OC [compound 79]    Condition not met

# ---- query molecule ----
Query: Assess whether reported pIC50 for COc1cc2nc(N3CCC(N(C)C)CC3)nc(NC3CCN(Cc4ccccc4)CC3)c2cc1OC [compound 13] sits at 7 or higher.
Response: Condition not met

* * *

# System: HepG2 cells
# run.description: cells
# stated.conditions: Homo sapiens, HepG2, read-out: anti-HepG2 IC50
pIC50: −log10 of the molar value.
measure.name: pIC50

Query: Observed pIC50 on HepG2 cells for COc1cc2nc(N3CCCCC3)nc(NC3CCN(C)CC3)c2cc1OC , please.
Response: < 5.00

* * *

# system.name: G9a (Homo sapiens)
# Sequence (Q96KQ7 1-1210): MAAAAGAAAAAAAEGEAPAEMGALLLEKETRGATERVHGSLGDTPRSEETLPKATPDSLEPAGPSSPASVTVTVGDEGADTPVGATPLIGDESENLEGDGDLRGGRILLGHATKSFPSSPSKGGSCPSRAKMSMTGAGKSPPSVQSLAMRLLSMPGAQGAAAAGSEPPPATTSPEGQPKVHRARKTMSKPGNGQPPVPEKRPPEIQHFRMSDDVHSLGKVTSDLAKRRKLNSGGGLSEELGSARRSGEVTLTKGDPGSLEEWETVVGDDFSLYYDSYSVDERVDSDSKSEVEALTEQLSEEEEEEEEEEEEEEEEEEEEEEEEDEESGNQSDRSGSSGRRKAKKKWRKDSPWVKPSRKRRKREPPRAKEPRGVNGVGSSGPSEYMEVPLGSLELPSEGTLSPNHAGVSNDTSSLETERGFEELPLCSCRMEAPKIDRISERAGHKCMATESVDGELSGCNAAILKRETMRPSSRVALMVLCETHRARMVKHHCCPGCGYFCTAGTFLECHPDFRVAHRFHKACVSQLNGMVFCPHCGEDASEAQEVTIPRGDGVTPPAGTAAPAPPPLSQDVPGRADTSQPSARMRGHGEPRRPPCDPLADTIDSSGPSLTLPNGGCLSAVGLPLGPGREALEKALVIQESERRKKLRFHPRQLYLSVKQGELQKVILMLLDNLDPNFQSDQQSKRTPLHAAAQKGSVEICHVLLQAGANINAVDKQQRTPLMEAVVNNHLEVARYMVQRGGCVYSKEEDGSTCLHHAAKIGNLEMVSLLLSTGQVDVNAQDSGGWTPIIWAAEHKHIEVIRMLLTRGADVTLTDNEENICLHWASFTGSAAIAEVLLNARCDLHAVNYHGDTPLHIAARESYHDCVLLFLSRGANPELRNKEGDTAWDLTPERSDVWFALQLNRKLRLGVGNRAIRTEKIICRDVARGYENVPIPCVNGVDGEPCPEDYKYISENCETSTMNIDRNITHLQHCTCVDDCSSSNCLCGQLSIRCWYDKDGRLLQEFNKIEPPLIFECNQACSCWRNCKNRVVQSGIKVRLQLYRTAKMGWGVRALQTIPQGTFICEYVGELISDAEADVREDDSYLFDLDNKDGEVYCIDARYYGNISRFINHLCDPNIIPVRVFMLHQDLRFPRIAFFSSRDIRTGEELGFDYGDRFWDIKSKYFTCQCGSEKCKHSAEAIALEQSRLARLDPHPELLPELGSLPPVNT
# stated.conditions: read-out: G9a IC50; SPA, 5 nM G9a, H3 1-25 peptide 0.8 μM, 3H-SAM 8 μM
measure.name: pIC50
Recall that pIC50 is obtained by taking minus log10 of the concentration measured in molar.

Some solved entries appear below for comparison.
1) COc1cc2nc(N3CCN(C)CC3)cc(NC3CCN(C)CC3)c2cc1OC [compound 91]    7.52
2) COc1cc2c(NC3CCN(C(C)C)CC3)nc(N3CCN(C)CC3)nc2cc1OCCCN1CCCCC1 [compound 68]    8.40
3) COc1cc2nc(N3CCCCC3)nc(NC3CCN(Cc4ccc(C)cc4)CC3)c2cc1OC [compound 26]    6.16
4) COc1cc2nc(N3CCC(C)CC3)nc(NC3CCN(Cc4ccccc4)CC3)c2cc1OC [compound 11]    5.88
5) COc1cc2nc(N3CCCCC3)nc(NC3CCN(CC4CCCCC4)CC3)c2cc1OC [compound 46]    6.53

Here's the next entry for you.
Query: Need pIC50, item COc1cc2nc(N3CCCCC3)nc(NC3CCN(Cc4cccc(C)c4)CC3)c2cc1OC [compound 25]
Response: 6.06
